- target_or_test_system: UniProt:H0VZC5
- Sequence (H0VZC5 1-426): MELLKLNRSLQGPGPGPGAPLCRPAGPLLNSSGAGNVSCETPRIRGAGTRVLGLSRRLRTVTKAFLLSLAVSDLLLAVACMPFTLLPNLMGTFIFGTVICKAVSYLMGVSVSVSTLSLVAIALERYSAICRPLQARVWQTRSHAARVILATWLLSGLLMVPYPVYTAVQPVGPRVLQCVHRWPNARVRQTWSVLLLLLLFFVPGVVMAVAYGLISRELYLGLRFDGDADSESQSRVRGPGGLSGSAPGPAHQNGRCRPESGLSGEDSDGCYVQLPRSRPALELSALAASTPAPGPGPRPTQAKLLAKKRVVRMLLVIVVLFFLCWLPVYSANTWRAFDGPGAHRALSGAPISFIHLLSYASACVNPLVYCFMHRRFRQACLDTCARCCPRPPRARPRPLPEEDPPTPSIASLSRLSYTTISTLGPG
property_measured: pIC50
Reminder that pIC50 means the negative base-10 logarithm of the concentration expressed in mol/L.

Output pIC50 of Cc1cc(Cl)c(NC(=O)C[C@@H](CC(=O)O)c2cccc3ccccc23)c(C(=O)N2CCC3(CCCC3)CC2)c1 7.64

Reference source for all entries: patent US6075033A
